# Tested on: RERF-LC-KJ
# Protocol: relative viability (nuclei count vs DMSO), 5 days (fraction); higher = more cells survive
# Condition Description: first compound 1 µM
Label 1 (yes) when relative viability is strictly below 0.8; at or above that, label 0 (no).

Use these answered entries as a reference point.
Molecule	Category
O=c1cc(N2CCOCC2)oc2c(-c3cccc4c3sc3ccccc34)cccc12 + CC(C)C[C@H](NC(=O)[C@H](Cc1ccccc1)NC(=O)c1cnccn1)B(O)O [Bortezomib] (partner 0.002 µM)	0 (no)
CCN(CC)CCCCNc1ncc2cc(-c3cc(OC)cc(OC)c3)c(NC(=O)NC(C)(C)C)nc2n1 + COc1cccc2cc(-c3nc([C@H]4CC[C@H](C(=O)O)CC4)n4ncnc(N)c34)[nH]c12 [OSI-027] (partner 0.5 µM)	1 (yes)
CCN(CC)CCCCNc1ncc2cc(-c3cc(OC)cc(OC)c3)c(NC(=O)NC(C)(C)C)nc2n1 + Nc1nc2[nH]cc(CCc3ccc(C(=O)N[C@@H](CCC(=O)O)C(=O)O)cc3)c2c(=O)[nH]1 [Pemetrexed] (partner 0.2 µM)	1 (yes)
CCN(CC)CCCCNc1ncc2cc(-c3cc(OC)cc(OC)c3)c(NC(=O)NC(C)(C)C)nc2n1 + CS(=O)(=O)N1CCN(Cc2cc3nc(-c4cccc5[nH]ncc45)nc(N4CCOCC4)c3s2)CC1 [Pictilisib] (partner 1 µM)	1 (yes)
O=c1cc(N2CCOCC2)oc2c(-c3cccc4c3sc3ccccc34)cccc12 + NC(=O)Nc1cc(-c2cccc(F)c2)sc1C(=O)N[C@H]1CCCNC1 [AZD7762] (partner 0.2 µM)	0 (no)

Below: the item to evaluate.
Confirm or reject: relative viability of CCN(CC)CCCCNc1ncc2cc(-c3cc(OC)cc(OC)c3)c(NC(=O)NC(C)(C)C)nc2n1 + CC(=O)c1c(C)c2cnc(Nc3ccc(N4CCNCC4)cn3)nc2n(C2CCCC2)c1=O [Palbociclib] (partner 0.5 µM) lies strictly below 0.8
0 (no)

Values were extracted from the supplement of paper PMC10307832.
